Molecular target: T1, human GIP receptor (human, UniProt P48546 22-466)
T1 sequence (looked up): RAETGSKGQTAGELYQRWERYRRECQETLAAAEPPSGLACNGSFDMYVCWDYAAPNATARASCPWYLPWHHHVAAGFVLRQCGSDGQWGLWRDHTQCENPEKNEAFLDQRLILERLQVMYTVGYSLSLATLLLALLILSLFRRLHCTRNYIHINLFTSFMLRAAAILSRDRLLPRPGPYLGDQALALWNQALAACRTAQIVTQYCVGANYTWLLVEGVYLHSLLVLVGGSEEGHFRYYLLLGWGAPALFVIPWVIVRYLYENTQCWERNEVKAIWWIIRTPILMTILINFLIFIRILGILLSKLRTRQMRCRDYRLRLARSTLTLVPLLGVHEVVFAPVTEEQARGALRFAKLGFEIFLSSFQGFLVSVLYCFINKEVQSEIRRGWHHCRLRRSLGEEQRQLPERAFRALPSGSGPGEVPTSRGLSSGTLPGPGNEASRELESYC
Assay: cell-based or functional assay
Numbered stars: 1 amine (or outer) side, 2 acyl side, 3 side chain; on linkers, the order of the positions; unused ones are H or OH. Square brackets hold non-standard residues; d marks the D form. Side chains are listed from the residue outwards. Ends that are not written are not given here. * marks the point of attachment. γGlu = O=C(O)[C@H](CCC(=O)[*:2])N[*:1]; Stearoyl = CCCCCCCCCCCCCCCCCC(=O)*; Palmitoyl = CCCCCCCCCCCCCCCC(=O)*; AEEA = NCCOCCOCC(=O)O; Aib = CC(C)(N)C(=O)O
EC50 hGIP-R (cAMP formation) for assorted binders

binder | EC50 hGIP-R (cAMP formation), pM
H[dS]HGTFTSDLSKQK([γGlu-γGlu-Palmitoyl])EEEAVRLFIEWLKAGGPSSGAPPPS-NH2 [SEQ ID NO: 13] | 79
H[Aib]QGTFTSDLSKQK([γGlu-Stearoyl])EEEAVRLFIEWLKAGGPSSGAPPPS-NH2 [SEQ ID NO: 6] | 60.7
H-H[Aib]HGTFTSDLSKQK([AEEA-AEEA-γGlu-Palmitoyl])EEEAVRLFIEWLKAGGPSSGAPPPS-NH2 [SEQ ID NO: 27] | 9.5
